Listed below: pIC50 values for each entry.
# Tgt: human Gastric Inhibitory Peptide Receptor (human) (UniProt P48546)
# Sequence (P48546 22-466 limits assumed): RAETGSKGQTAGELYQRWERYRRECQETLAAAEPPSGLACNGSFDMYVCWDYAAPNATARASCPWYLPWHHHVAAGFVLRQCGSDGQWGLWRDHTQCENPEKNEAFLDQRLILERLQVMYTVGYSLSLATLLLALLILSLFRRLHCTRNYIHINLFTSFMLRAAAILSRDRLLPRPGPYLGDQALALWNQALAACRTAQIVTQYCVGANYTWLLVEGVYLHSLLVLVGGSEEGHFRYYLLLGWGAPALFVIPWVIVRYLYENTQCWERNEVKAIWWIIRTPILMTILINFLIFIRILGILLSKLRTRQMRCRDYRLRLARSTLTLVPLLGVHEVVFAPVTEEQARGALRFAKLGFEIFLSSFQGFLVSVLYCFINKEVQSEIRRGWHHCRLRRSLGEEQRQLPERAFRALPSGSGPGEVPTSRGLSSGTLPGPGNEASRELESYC
# Procedure Summary: FACS competition with GIP-057 on CHO-K1-hGIPR cells; pIC50 category A: >8.0
*1 amine or outer side, *2 acyl side, *3 side chain or, on linkers, in order; H or OH if unused. Bridges are numbered along the chain shown (N, C = ends). Primed or numbered codes have the meaning given here. [ ]: non-standard residue; d: D form. The star is where a group is joined. Ttds = 1,13-diamino-4,7,10-trioxatridecan-succinamic acid, NCCCOCCOCCOCCCNC(=O)CCC(=O)*; APAc″ = 4-amino-1-carboxymethylpiperidine, NC1CCN(CC(=O)*)CC1; DOTA = O=C(O)CN1CCN(CC(=O)O)CCN(CC(=O)*)CCN(CC(=O)O)CC1; Trp(5-Cl) = N[C@@H](Cc1c[nH]c2ccc(Cl)cc12)C(=O)O; Pyridine(2,6-diCH2) = c1cc(C[*:1])nc(C[*:2])c1; mXylylene = c1cc(C[*:1])cc(C[*:2])c1; Hyp = O=C(O)[C@@H]1C[C@@H](O)CN1; Cysteamide = C(CS[*:3])N[*:1]; 2Lut(3) = 2,6-lutidylidene; Api = NC1(C(=O)O)CCNCC1; Thp = NC1(C(=O)O)CCOCC1

These recorded examples may help you get a feel for the data.
>  <Binder>
{DOTA-Ttds}-DW[Trp(5-Cl)][Hyp]E[dL]C[Thp]LICK(DOTA)-NH2 (linker 7-11 via 2Lut(3)) [DOTA-Ttds-Asp-Trp-5Clw-Hyp-Glu-leu-[Cys(2Lut)-Thp-Leu-Ile-Cys]-Lys(DOTA)-NH2]

>  <Reported Result>
> 8 pic50

$$$$
>  <Binder>
{DOTA-Ttds}-DW[Trp(5-Cl)]PE[dL]C[Api]LI[Cysteamide] (linker (positions not given here) via mXylylene; not fully specified (bridges); printed as DOTA-Ttds-Asp-Trp-5Clw-Pro-Glu-leu-[Cys(3MeBn)-Apc-Leu-Ile-AET]) [DOTA-Ttds-Asp-Trp-5Clw-Pro-Glu-leu-[Cys(3MeBn)-Apc-Leu-Ile-AET]]

>  <Reported Result>
> 8 pic50

$$$$

# input for lookup
Recorded result, {DOTA-APAc″}-DW[Trp(5-Cl)][Hyp]E[dL]C[Thp]LI[Cysteamide] (linker (positions not given here) via Pyridine(2,6-diCH2); not fully specified (bridges); printed as DOTA-APAc-Asp-Trp-5Clw-Hyp-Glu-leu-[Cys(2Lut)-Thp-Leu-Ile-AET]) [DOTA-APAc-Asp-Trp-5Clw-Hyp-Glu-leu-[Cys(2Lut)-Thp-Leu-Ile-AET]] , pIC50: > 8 pic50

Numbers sourced from patent US20250296971A1.
